Entries and their measured pIC50 follow.
Test system: Hh signaling (Gli1 mRNA) in ASZ cells
Assay: Down-regulation of endogenous Gli1 mRNA in ASZ cells
Assay type: cell-based, murine
Conditions: Mus musculus, read-out: Hh pathway inhibition ASZ, down-regulation of endogenous Gli1 mRNA
In plain terms, pIC50 is the concentration in mol/L turned into minus its base-10 logarithm.

Task: Requested field: pIC50. Item: CCC(C)n1ncn(-c2ccc(N3CCN(c4ccc(OCC5COC(C)(c6ccc(Cl)cc6Cl)O5)cc4)CC3)cc2)c1=O (mixture of isomers)
Result: 6.77

Task: # iterate: CCC(C)n1ncn(-c2ccc(N3CCN(c4ccc(OCC5COC(Cn6cncn6)(c6ccc(Cl)cc6Cl)O5)cc4)CC3)cc2)c1=O (centres unmarked) [ITZ, itraconazole, reference compound]
Result: 6.85

---

Test system: Hh signaling (Gli1 mRNA) in C3H10T1/2 cells
Experiment: Down-regulation of endogenous Gli1 mRNA in Hh-dependent C3H10T1/2 cells
Format: cell-based, mouse
Conditions: Mus musculus, C3H 10T1/2, 24 h, read-out: IC50 (μM) C3H10T1/2, 24 hr incubation
Measured IC50 values are reported for all entries that follow.

CC[C@H](C)n1ncn(-c2ccc(N3CCN(c4ccc(OCC5COC(Cn6cncn6)(c6ccc(Cl)cc6Cl)O5)cc4)CC3)cc2)c1=O (stereo partly shown) : 0.16 µM
CCC(C)n1ncn(-c2ccc(N3CCN(c4ccc(OCC5COC(Cn6cncn6)(c6ccc(Cl)cc6Cl)O5)cc4)CC3)cc2)c1=O (stereo not shown) [ITZ, itraconazole, reference compound] : 0.074 µM
CC[C@@H](C)n1ncn(-c2ccc(N3CCN(c4ccc(OCC5COC(Cn6cncn6)(c6ccc(Cl)cc6Cl)O5)cc4)CC3)cc2)c1=O (stereo partly shown) : 0.14 µM
CCC(C)n1ncn(-c2ccc(N3CCN(c4ccc(OCC5COC(C)(c6ccc(Cl)cc6Cl)O5)cc4)CC3)cc2)c1=O (mixture of isomers) : 0.14 µM
CC[C@@H]([C@H](C)O)n1ncn(-c2ccc(N3CCN(c4ccc(OC[C@@H]5CO[C@@](Cn6cncn6)(c6ccc(F)cc6F)C5)cc4)CC3)cc2)c1=O [PSZ, posaconazole, reference compound] : 0.14 µM
Nc1ccc(N2CCN(c3ccc(OCC4COC(Cn5cncn5)(c5ccc(Cl)cc5Cl)O4)cc3)CC2)cc1 (stereo not shown) [Compound 11a] : 0.16 µM

Continue with the next compound.
Task: For the compound shown here, O=[N+]([O-])c1ccc(N2CCN(c3ccc(OCC4COC(Cn5cncn5)(c5ccc(Cl)cc5Cl)O4)cc3)CC2)cc1 (stereo not shown) [Compound 10a] , give the reported IC50.
Result: 0.13 µM

---

Test system: HUVEC
Assay: HUVEC proliferation (MTS)
Format: cell-based, human
Details: Homo sapiens, HUVEC; read-out: IC50 HUVEC anti-proliferation
Catalogue of pIC50 readings, one per entry.
Worth noting: pIC50 values are minus log10 of concentrations stated in mol/L.

CC[C@@H](C)n1ncn(-c2ccc(N3CCN(c4ccc(OC[C@@H]5CO[C@](C)(c6ccc(Cl)cc6Cl)O5)cc4)CC3)cc2)c1=O [Compound 21a] : 4.89

With those in mind, consider the next molecule.
Task: Find the recorded pIC50 belonging to CC[C@H](C)n1ncn(-c2ccc(N3CCN(c4ccc(OC[C@@H]5CO[C@](C)(c6ccc(Cl)cc6Cl)O5)cc4)CC3)cc2)c1=O [Compound 17a] and report it.
Result: 5.60

---

Experiment: BBB-PAMPA
Format: in vitro ADME
Settings: preliminary studies, read-out: apparent permeability (Papp)
measurement_kind: Papp at 30 min, 10 μM

Task: Which Papp at 30 min, 10 μM is reported for this molecule? CC[C@@H]([C@H](C)O)n1ncn(-c2ccc(N3CCN(c4ccc(OC[C@@H]5CO[C@@](Cn6cncn6)(c6ccc(F)cc6F)C5)cc4)CC3)cc2)c1=O [PSZ, posaconazole, reference compound]
Result: 46 ×10⁻⁶ cm/s

---

System: Hh signaling (Gli1 mRNA) in ASZ cells
Experiment: Down-regulation of endogenous Gli1 mRNA in ASZ cells
Format: cell-based, murine
Settings: Mus musculus; 48 hr incubation; read-out: IC50 (μM) ASZ
measurement_kind: IC50 (µM)
Express the result in µM but write the number alone.

Take a look at these entries with their results.
CCCn1ncn(-c2ccc(N3CCN(c4ccc(OC[C@@H]5CO[C@@](C)(c6ccc(Cl)cc6Cl)O5)cc4)CC3)cc2)c1=O [Compound 22a] : 1.3
CC[C@H](C)n1ncn(-c2ccc(N3CCN(c4ccc(OC[C@H]5CO[C@](C)(c6ccc(Cl)cc6Cl)O5)cc4)CC3)cc2)c1=O [Compound 14a] : 2.5

Task: Data request, read-out IC50, for CC[C@H](C)n1ncn(-c2ccc(N3CCN(c4ccc(OC[C@H]5CO[C@@](C)(c6ccc(Cl)cc6Cl)O5)cc4)CC3)cc2)c1=O [Compound 15a]
Result: 0.55

Task: Then this compound: CC[C@@H](C)n1ncn(-c2ccc(N3CCN(c4ccc(OC[C@H]5CO[C@](C)(c6ccc(Cl)cc6Cl)O5)cc4)CC3)cc2)c1=O [Compound 18a]
Result: 0.13

Task: Try CCCn1ncn(-c2ccc(N3CCN(c4ccc(OC[C@@H]5CO[C@](C)(c6ccc(Cl)cc6Cl)O5)cc4)CC3)cc2)c1=O [Compound 23a] next.
Result: 1.4

Task: # repeat for CC[C@@H](C)n1ncn(-c2ccc(N3CCN(c4ccc(OC[C@@H]5CO[C@@](C)(c6ccc(Cl)cc6Cl)O5)cc4)CC3)cc2)c1=O [Compound 20a]
Result: 0.022

---

Items are presented alongside their recorded IC50.
Test system: Hh signaling (Gli1 mRNA) in ASZ cells
Test: Down-regulation of endogenous Gli1 mRNA in ASZ cells
Type: cell-based, murine
Conditions: Mus musculus, read-out: IC50 (μM) Gli1-ASZs
// note: answer is a bare numeric in µM

Field: example entries. Status: answers known.
CCC(C)n1ncn(-c2ccc(N3CCN(c4ccc(OCC5COC(C)(c6ccc(Cl)cc6Cl)O5)cc4)CC3)cc2)c1=O (mixture of isomers) [Compound 2a] : 0.17
CC[C@@H]([C@H](C)O)n1ncn(-c2ccc(N3CCN(c4ccc(OC[C@@H]5CO[C@@](Cn6cncn6)(c6ccc(F)cc6F)C5)cc4)CC3)cc2)c1=O [PSZ, posaconazole, reference compound] : 0.54

Kindly consider the entry below.
Task: Consider the molecule shown here: CCC(C)n1ncn(-c2ccc(N3CCN(c4ccc(OCC5COC(Cn6cncn6)(c6ccc(Cl)cc6Cl)O5)cc4)CC3)cc2)c1=O (stereo not drawn) [ITZ, itraconazole, reference compound] What is its recorded IC50?
Result: 0.14

---

This listing pairs compounds with measured IC50.
Test system: Hh signaling (Gli1 mRNA) in ASZ cells
Assay: Down-regulation of endogenous Gli1 mRNA in ASZ cells
Type: cell-based, murine
Conditions: Mus musculus; 48 hr incubation; read-out: IC50 (μM) ASZ
# output: bare number, implied unit µM

Please review the following examples before continuing.
CCCn1ncn(-c2ccc(N3CCN(c4ccc(OC[C@H]5CO[C@](C)(c6ccc(Cl)cc6Cl)O5)cc4)CC3)cc2)c1=O [Compound 24a] : 0.2
CC[C@@H](C)n1ncn(-c2ccc(N3CCN(c4ccc(OC[C@@H]5CO[C@](C)(c6ccc(Cl)cc6Cl)O5)cc4)CC3)cc2)c1=O [Compound 21a] : 0.024
CCC(C)n1ncn(-c2ccc(N3CCN(c4ccc(OCC5COC(Cn6cncn6)(c6ccccc6)O5)cc4)CC3)cc2)c1=O (stereo not shown) : 0.45
CC[C@@H](C)n1ncn(-c2ccc(N3CCN(c4ccc(OC[C@H]5CO[C@@](C)(c6ccc(Cl)cc6Cl)O5)cc4)CC3)cc2)c1=O [Compound 19a] : 2.8
CC[C@H](C)n1ncn(-c2ccc(N3CCN(c4ccc(OC[C@@H]5CO[C@](C)(c6ccc(Cl)cc6Cl)O5)cc4)CC3)cc2)c1=O [Compound 17a] : 0.15

Task: Give recorded IC50 with Hh signaling (Gli1 mRNA) in ASZ cells for the following compound: CC[C@H](C)n1ncn(-c2ccc(N3CCN(c4ccc(OC[C@@H]5CO[C@@](C)(c6ccc(Cl)cc6Cl)O5)cc4)CC3)cc2)c1=O [Compound 16a]
Result: 0.38

Task: Next entry: CCCn1ncn(-c2ccc(N3CCN(c4ccc(OC[C@H]5CO[C@@](C)(c6ccc(Cl)cc6Cl)O5)cc4)CC3)cc2)c1=O [Compound 25a]
Result: 0.54
